- Tested on: NCI-H1993
- TEST NAME: relative viability (nuclei count vs DMSO), 5 days (fraction); higher = more cells survive
- SETTINGS: first compound 0.1581 µM
# key: entry, value: relative viability
Give a plain numeric answer without units written out.

compound COc1cc2nccc(Oc3ccc(NC(=O)Nc4cc(C)on4)c(Cl)c3)c2cc1OC [Tivozanib] + CCNC(=O)c1noc(-c2cc(C(C)C)c(O)cc2O)c1-c1ccc(CN2CCOCC2)cc1 [Luminespib] (partner 0.01 µM) , relative viability observed: 0.753

compound COc1cc2nccc(Oc3ccc(NC(=O)Nc4cc(C)on4)c(Cl)c3)c2cc1OC [Tivozanib] + CC(C)C[C@H](NC(=O)[C@H](Cc1ccccc1)NC(=O)c1cnccn1)B(O)O [Bortezomib] (partner 0.002 µM) , relative viability observed: 0.647

compound Nc1ccn([C@@H]2O[C@H](CO)[C@@H](O)[C@@H]2O)c(=O)n1 [Cytarabine] + N=C(N)NC(=N)NCCc1ccccc1 [Phenformin] (partner 250 µM) , relative viability observed: 0.515

---

- Tested on: LU99A
- TEST NAME: relative viability (nuclei count vs DMSO), 5 days (fraction); higher = more cells survive
- SETTINGS: first compound 0.01581 µM
VALUE TYPE: relative viability
Give a plain numeric answer without units written out.

Nc1ccn([C@@H]2O[C@H](CO)[C@@H](O)[C@@H]2O)c(=O)n1 [Cytarabine] + COc1cc2c(Oc3ccc(NC(=O)C4(C(=O)Nc5ccc(F)cc5)CC4)cc3F)ccnc2cc1OCCCN1CCOCC1 [Foretinib] (partner 0.25 µM) = 0.773

compound Nc1ccn([C@@H]2O[C@H](CO)[C@@H](O)[C@@H]2O)c(=O)n1 [Cytarabine] + C[C@@H](Oc1cc(-c2cnn(C3CCNCC3)c2)cnc1N)c1c(Cl)ccc(F)c1Cl [Crizotinib] (partner 1 µM) , relative viability observed: 0.549

---

- System: NCI-H441
- TEST NAME: relative viability (nuclei count vs DMSO), 5 days (fraction); higher = more cells survive
- SETTINGS: first compound 0.1581 µM
# key: entry, value: relative viability
Give a plain numeric answer without units written out.

Nc1ccn([C@@H]2O[C@H](CO)[C@@H](O)[C@@H]2O)c(=O)n1 [Cytarabine] + C[C@@H](Oc1cc(-c2cnn(C3CCNCC3)c2)cnc1N)c1c(Cl)ccc(F)c1Cl [Crizotinib] (partner 1 µM) = 0.199
Nc1ccn([C@@H]2O[C@H](CO)[C@@H](O)[C@@H]2O)c(=O)n1 [Cytarabine] + Nc1nc2[nH]cc(CCc3ccc(C(=O)N[C@@H](CCC(=O)O)C(=O)O)cc3)c2c(=O)[nH]1 [Pemetrexed] (partner 0.2 µM) = 0.226
Nc1ccn([C@@H]2O[C@H](CO)[C@@H](O)[C@@H]2O)c(=O)n1 [Cytarabine] + Nc1ncn([C@H]2C[C@H](O)[C@@H](CO)O2)c(=O)n1 [Decitabine] (partner 2 µM) = 0.182

Next, consider the following compound.
compound Nc1ccn([C@@H]2O[C@H](CO)[C@@H](O)[C@@H]2O)c(=O)n1 [Cytarabine] + CC1(C)CCC(c2ccc(Cl)cc2)=C(CN2CCN(c3ccc(C(=O)NS(=O)(=O)c4ccc(N[C@H](CCN5CCOCC5)CSc5ccccc5)c(S(=O)(=O)C(F)(F)F)c4)cc3)CC2)C1 [Navitoclax] (partner 0.5 µM) , relative viability observed: 0.176

---

- Test system: ABC-1
- TEST NAME: relative viability (nuclei count vs DMSO), 5 days (fraction); higher = more cells survive
- SETTINGS: first compound 0.02 µM
# key: entry, value: relative viability
Give a plain numeric answer without units written out.

Check out these entries, answers already filled in.
CC(=O)O[C@@]12CO[C@@H]1C[C@H](O)[C@@]1(C)C(=O)[C@H](O)C3=C(C)[C@@H](OC(=O)[C@H](O)[C@@H](NC(=O)OC(C)(C)C)c4ccccc4)C[C@@](O)([C@@H](OC(=O)c4ccccc4)[C@H]21)C3(C)C [Docetaxel] + NC(=O)Nc1cc(-c2cccc(F)c2)sc1C(=O)N[C@H]1CCCNC1 [AZD7762] (partner 0.2 µM) = 0.222
CC(=O)O[C@@]12CO[C@@H]1C[C@H](O)[C@@]1(C)C(=O)[C@H](O)C3=C(C)[C@@H](OC(=O)[C@H](O)[C@@H](NC(=O)OC(C)(C)C)c4ccccc4)C[C@@](O)([C@@H](OC(=O)c4ccccc4)[C@H]21)C3(C)C [Docetaxel] + COc1cccc2cc(-c3nc([C@H]4CC[C@H](C(=O)O)CC4)n4ncnc(N)c34)[nH]c12 [OSI-027] (partner 0.5 µM) = 0.186

Next, consider the following compound.
Known value: ABC-1 relative viability of the compound CC(=O)O[C@@]12CO[C@@H]1C[C@H](O)[C@@]1(C)C(=O)[C@H](O)C3=C(C)[C@@H](OC(=O)[C@H](O)[C@@H](NC(=O)OC(C)(C)C)c4ccccc4)C[C@@](O)([C@@H](OC(=O)c4ccccc4)[C@H]21)C3(C)C [Docetaxel] + C[C@]1(O)C[C@@H](c2nc(-c3ccc4ccc(-c5ccccc5)nc4c3)c3c(N)nccn32)C1 [Linsitinib] (partner 1 µM) equals 0.218

---

- Tested on: NCI-H1755
- TEST NAME: relative viability (nuclei count vs DMSO), 5 days (fraction); higher = more cells survive
- SETTINGS: first compound 0.002 µM
VALUE TYPE: relative viability
Give a plain numeric answer without units written out.

CC(=O)O[C@@]12CO[C@@H]1C[C@H](O)[C@@]1(C)C(=O)[C@H](O)C3=C(C)[C@@H](OC(=O)[C@H](O)[C@@H](NC(=O)OC(C)(C)C)c4ccccc4)C[C@@](O)([C@@H](OC(=O)c4ccccc4)[C@H]21)C3(C)C [Docetaxel] + CC(=O)Nc1cccc(-n2c(=O)n(C3CC3)c(=O)c3c(Nc4ccc(I)cc4F)n(C)c(=O)c(C)c32)c1 [Trametinib] (partner 0.02 µM) = 0.555

molecule CC(=O)O[C@@]12CO[C@@H]1C[C@H](O)[C@@]1(C)C(=O)[C@H](O)C3=C(C)[C@@H](OC(=O)[C@H](O)[C@@H](NC(=O)OC(C)(C)C)c4ccccc4)C[C@@](O)([C@@H](OC(=O)c4ccccc4)[C@H]21)C3(C)C [Docetaxel] + C[C@@H](Oc1cc(-c2cnn(C3CCNCC3)c2)cnc1N)c1c(Cl)ccc(F)c1Cl [Crizotinib] (partner 1 µM) , relative viability observed: 0.503

molecule CC(=O)O[C@@]12CO[C@@H]1C[C@H](O)[C@@]1(C)C(=O)[C@H](O)C3=C(C)[C@@H](OC(=O)[C@H](O)[C@@H](NC(=O)OC(C)(C)C)c4ccccc4)C[C@@](O)([C@@H](OC(=O)c4ccccc4)[C@H]21)C3(C)C [Docetaxel] + CS(=O)(=O)N1CCN(Cc2cc3nc(-c4cccc5[nH]ncc45)nc(N4CCOCC4)c3s2)CC1 [Pictilisib] (partner 1 µM) , relative viability observed: 0.264

---

# key: entry, value: relative viability
- Tested on: NCI-H1944
- TEST NAME: relative viability (nuclei count vs DMSO), 5 days (fraction); higher = more cells survive
- SETTINGS: first compound 500 µM

O=C(O)CCCCC(CCSCc1ccccc1)SCc1ccccc1 (stereo not given) [CPI-613] + CC(=O)c1c(C)c2cnc(Nc3ccc(N4CCNCC4)cn3)nc2n(C2CCCC2)c1=O [Palbociclib] (partner 0.5 µM) = 0.26
O=C(O)CCCCC(CCSCc1ccccc1)SCc1ccccc1 (stereo not given) [CPI-613] + C[C@@H](Oc1cc(-c2cnn(C3CCNCC3)c2)cnc1N)c1c(Cl)ccc(F)c1Cl [Crizotinib] (partner 1 µM) = 0.891
O=C(O)CCCCC(CCSCc1ccccc1)SCc1ccccc1 (stereo not given) [CPI-613] + C[C@]1(O)C[C@@H](c2nc(-c3ccc4ccc(-c5ccccc5)nc4c3)c3c(N)nccn32)C1 [Linsitinib] (partner 1 µM) = 0.787

Known value: NCI-H1944 relative viability of the compound O=C(O)CCCCC(CCSCc1ccccc1)SCc1ccccc1 (stereo not given) [CPI-613] + Cc1nc(Nc2ncc(C(=O)Nc3c(C)cccc3Cl)s2)cc(N2CCN(CCO)CC2)n1 [Dasatinib] (partner 0.075 µM) equals 0.0792

Known value: NCI-H1944 relative viability of the compound O=C(O)CCCCC(CCSCc1ccccc1)SCc1ccccc1 (stereo not given) [CPI-613] + CS(=O)(=O)N1CCN(Cc2cc3nc(-c4cccc5[nH]ncc45)nc(N4CCOCC4)c3s2)CC1 [Pictilisib] (partner 1 µM) equals 0.332

---

- Tested on: HCC-78
- TEST NAME: relative viability (nuclei count vs DMSO), 5 days (fraction); higher = more cells survive
- SETTINGS: first compound 0.08 µM
VALUE TYPE: relative viability

Check out these entries, answers already filled in.
Cc1cnc(-c2cnc(NCCNc3ccc(C#N)cn3)nc2-c2ccc(Cl)cc2Cl)[nH]1 + O=C(CCCCCCC(=O)Nc1ccccc1)NO [Vorinostat] (partner 1 µM) = 0.553
Cc1cnc(-c2cnc(NCCNc3ccc(C#N)cn3)nc2-c2ccc(Cl)cc2Cl)[nH]1 + NC(=O)Nc1cc(-c2cccc(F)c2)sc1C(=O)N[C@H]1CCCNC1 [AZD7762] (partner 0.2 µM) = 0.582
Cc1cnc(-c2cnc(NCCNc3ccc(C#N)cn3)nc2-c2ccc(Cl)cc2Cl)[nH]1 + Cc1cc(Nc2cc(N3CCN(C)CC3)nc(Sc3ccc(NC(=O)C4CC4)cc3)n2)n[nH]1 [Tozasertib] (partner 0.1 µM) = 0.482

molecule O=c1[nH]c2ccccc2n1C1CCN(CCCC(c2ccc(F)cc2)c2ccc(F)cc2)CC1 [Pimozide] + CC(C)C[C@H](NC(=O)[C@H](Cc1ccccc1)NC(=O)c1cnccn1)B(O)O [Bortezomib] (partner 0.002 µM) , relative viability observed: 0.408

molecule Cc1cnc(-c2cnc(NCCNc3ccc(C#N)cn3)nc2-c2ccc(Cl)cc2Cl)[nH]1 + C[C@]1(O)C[C@@H](c2nc(-c3ccc4ccc(-c5ccccc5)nc4c3)c3c(N)nccn32)C1 [Linsitinib] (partner 1 µM) , relative viability observed: 0.632

molecule O=c1[nH]c2ccccc2n1C1CCN(CCCC(c2ccc(F)cc2)c2ccc(F)cc2)CC1 [Pimozide] + C[C@]1(O)C[C@@H](c2nc(-c3ccc4ccc(-c5ccccc5)nc4c3)c3c(N)nccn32)C1 [Linsitinib] (partner 1 µM) , relative viability observed: 0.531

molecule Cc1cnc(-c2cnc(NCCNc3ccc(C#N)cn3)nc2-c2ccc(Cl)cc2Cl)[nH]1 + CS(=O)(=O)N1CCN(Cc2cc3nc(-c4cccc5[nH]ncc45)nc(N4CCOCC4)c3s2)CC1 [Pictilisib] (partner 1 µM) , relative viability observed: 0.198

molecule O=c1[nH]c2ccccc2n1C1CCN(CCCC(c2ccc(F)cc2)c2ccc(F)cc2)CC1 [Pimozide] + C[C@@H](Oc1cc(-c2cnn(C3CCNCC3)c2)cnc1N)c1c(Cl)ccc(F)c1Cl [Crizotinib] (partner 1 µM) , relative viability observed: 0.263

molecule Cc1cnc(-c2cnc(NCCNc3ccc(C#N)cn3)nc2-c2ccc(Cl)cc2Cl)[nH]1 + CS(=O)(=O)CCNCc1ccc(-c2ccc3ncnc(Nc4ccc(OCc5cccc(F)c5)c(Cl)c4)c3c2)o1 [Lapatinib] (partner 2 µM) , relative viability observed: 0.449

molecule O=c1[nH]c2ccccc2n1C1CCN(CCCC(c2ccc(F)cc2)c2ccc(F)cc2)CC1 [Pimozide] + O=C(CCCCCCC(=O)Nc1ccccc1)NO [Vorinostat] (partner 1 µM) , relative viability observed: 0.371

Value source: the supplement of paper PMC10307832
